- MEASURED ON: Prostaglandin G/H synthase 2 (Homo sapiens, UniProt P35354)
- Sequence (P35354 whole entry): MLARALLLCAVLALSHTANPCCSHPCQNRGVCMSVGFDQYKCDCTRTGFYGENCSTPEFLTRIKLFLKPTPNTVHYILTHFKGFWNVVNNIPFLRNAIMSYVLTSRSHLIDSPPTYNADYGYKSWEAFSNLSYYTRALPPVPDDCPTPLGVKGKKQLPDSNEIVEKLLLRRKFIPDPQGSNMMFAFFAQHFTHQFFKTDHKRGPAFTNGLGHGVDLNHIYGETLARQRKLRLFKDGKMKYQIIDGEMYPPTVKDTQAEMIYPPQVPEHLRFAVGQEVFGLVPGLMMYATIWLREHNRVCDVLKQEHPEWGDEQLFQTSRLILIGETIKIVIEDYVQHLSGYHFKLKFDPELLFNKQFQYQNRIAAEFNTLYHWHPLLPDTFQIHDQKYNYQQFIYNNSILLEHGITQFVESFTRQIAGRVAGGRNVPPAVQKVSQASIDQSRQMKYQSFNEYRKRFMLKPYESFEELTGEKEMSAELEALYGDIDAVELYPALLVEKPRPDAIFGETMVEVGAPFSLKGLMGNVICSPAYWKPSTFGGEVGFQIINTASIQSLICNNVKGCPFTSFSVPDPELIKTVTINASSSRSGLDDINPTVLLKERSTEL
- EXPERIMENTAL PROTOCOL: Inhibition of COX2-mediated 6-keto PGF1alpha production in IL1-beta stimulated human A549 cells after 10 mins by EIA
REPORTED PROPERTY: IC50

Hey, quick one: what's IC50 for each of these?
1. CCOC(=O)C1CCN(C(=O)CCc2cc(-c3ccc(C)cc3)n(-c3ccccc3)n2)CC1
2. Cc1ccc(-c2cc(CCC(=O)N3CCN(Cc4ccc(C(C)(C)C)cc4)CC3)nn2-c2ccccc2)cc1
3. Cc1ccc(-c2cc(CCC(=O)N3CCN(Cc4ccc(C(C)(C)C)cc4)CC3)nn2-c2ccc3ccccc3n2)cc1
4. CCOC(=O)C1CCN(C(=O)CCc2cc(-c3ccc(C(F)(F)F)cc3)n(-c3ccc(Cl)nn3)n2)CC1

*A*
["> 10 µM", "> 10 µM", "> 10 µM", "> 10 µM"]
